Measured values drawn from patent US10385054B2 for this set.

Target: human TLR7 (Homo sapiens)
Construct: expressed in transfected cells; host or cells: HEK293
Sequence (Q9NYK1 27-1049): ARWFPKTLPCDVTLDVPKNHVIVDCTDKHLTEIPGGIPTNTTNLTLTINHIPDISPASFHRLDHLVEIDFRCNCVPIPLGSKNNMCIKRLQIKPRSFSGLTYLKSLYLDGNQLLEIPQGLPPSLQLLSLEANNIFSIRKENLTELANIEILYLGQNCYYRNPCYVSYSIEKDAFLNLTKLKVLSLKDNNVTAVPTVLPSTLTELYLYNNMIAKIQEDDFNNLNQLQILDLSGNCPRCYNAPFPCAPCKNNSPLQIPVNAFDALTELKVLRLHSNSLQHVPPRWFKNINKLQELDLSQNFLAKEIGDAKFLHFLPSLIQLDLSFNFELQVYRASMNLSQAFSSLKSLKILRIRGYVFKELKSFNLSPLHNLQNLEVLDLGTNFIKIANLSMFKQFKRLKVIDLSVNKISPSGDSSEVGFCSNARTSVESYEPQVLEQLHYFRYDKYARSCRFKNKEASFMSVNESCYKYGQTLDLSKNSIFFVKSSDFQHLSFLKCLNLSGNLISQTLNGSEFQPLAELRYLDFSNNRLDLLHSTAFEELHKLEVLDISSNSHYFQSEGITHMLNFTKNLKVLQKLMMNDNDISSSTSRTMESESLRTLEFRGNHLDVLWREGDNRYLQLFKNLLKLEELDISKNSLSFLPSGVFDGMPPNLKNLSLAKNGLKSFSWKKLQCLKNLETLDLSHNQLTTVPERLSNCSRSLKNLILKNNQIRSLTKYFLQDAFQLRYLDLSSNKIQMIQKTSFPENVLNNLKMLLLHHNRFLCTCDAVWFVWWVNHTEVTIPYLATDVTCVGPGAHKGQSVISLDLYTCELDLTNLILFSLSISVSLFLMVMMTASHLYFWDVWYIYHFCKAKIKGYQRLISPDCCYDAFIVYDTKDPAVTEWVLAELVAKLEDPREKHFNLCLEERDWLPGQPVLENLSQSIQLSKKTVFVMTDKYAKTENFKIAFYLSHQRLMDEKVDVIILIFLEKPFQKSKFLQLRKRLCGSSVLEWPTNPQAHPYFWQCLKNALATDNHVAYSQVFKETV
Assay: TLR7 cellular NFκB-luc reporter assay in transiently transfected HEK293 cells
Format: cell-based
Conditions: lowest effective concentration, 6 hours incubation
Experimental: The ability of compounds to activate human TLR7 and/or TLR8 was assessed in a cellular reporter assay using HEK293 cells transiently transfected with a TLR7 or TLR8 expression vector and NFκB-luc reporter construct. Briefly, HEK293 cells were grown in culture medium (DMEM supplemented with 10% FCS and 2 mM Glutamine). […]
observable: Human TLR 7 (LEC) (µM)

>>> observed_measurement("CCCCOc1nc(N)nc2ccn(Cc3ccccc3)c12")
0.6
>>> observed_measurement("COCCn1ccc2nc(N)nc(OCc3cc(C)on3)c21")
2.7
>>> observed_measurement("COc1ccc(Cn2ccc3nc(N)nc(OCc4cc(C)on4)c32)nc1OC")
0.08

(I) COc1cccnc1Cn1ccc2nc(N)nc(OCc3cc(C)on3)c21
(II) COc1ccccc1Cn1ccc2nc(N)nc(OCc3cc(C)on3)c21
(III) CCCCOc1nc(N)nc2ccn(Cc3ccccn3)c12
Rank by Human TLR 7 (LEC) (largest to smallest). Please list the labels in the order you were asked to rank them.
III, II, I
(III: 1.4 µM, II: 0.1 µM, I: 0.03 µM)
